Just for reference, PubChem BioAssay (EPA / NIEHS) is where these values come from.

Read-out: Cyclin Dependent Kinase Inhibitor 1A (CDKN1A), CDKN1A (gene 1026)
Assay: LTEA_HepaRG_CDKN1A: Life Technologies and Expression Analysis (LTEA) Assay for Cyclin Dependent Kinase Inhibitor 1A (CDKN1A) using HepaRG (AID 2283450)
Conditions: mRNA level, 48 h; actives raise or lower the signal
Active and inactive are the calls of the source. How the source made its calls: active means hit-call score of the fitted dose curve at least 0.9, where 1 is the maximum; inactive means score below 0.9.
Please reply with one of these outcomes: Y = active, N = inactive

Example entries begin here.
1) CC/C(=C\C(=N/O)C(N)=O)C(C)[N+](=O)[O-] (stereo not drawn)	N
2) CC(C)CC(C)(O)C#CC(C)(O)CC(C)C (stereo not drawn)	N
3) COCCOc1cc2cc(C(=O)NC3CCN(C(C)C)CC3)n(CC(=O)Nc3ccc(Cl)cn3)c2cn1	N
4) CCCCCCCCCCCCCCCO	N
5) COc1ccc(/C=C/S(=O)(=O)NC(=O)c2ccc(C)cc2Cl)cc1	N

INPUT: Test call, this compound: `C=CC(=C)CCC=C(C)C`
OUTPUT: N

INPUT: Recorded test outcome, item `O=C(NS(=O)(=O)/C=C/c1ccccc1)c1ccc(F)cc1Cl`
OUTPUT: N

INPUT: # lookup: test call for `CCCCCCCCCCCCc1ccccc1`
OUTPUT: N

INPUT: In this assay, the call recorded for Fc1ccccc1[C@@H](F)COC1CCC(Nc2ncnc3[nH]ncc23)CC1 (stereo partly drawn) was what?
OUTPUT: Y

INPUT: GET /call?item= `Nc1ccc(Nc2ccccc2)cc1` returns the recorded outcome of this test.
OUTPUT: N

INPUT: Could you please tell me the result logged for `CCn1nc(Cc2ccccc2)cc1C1CCN(C[C@H]2C[C@H](N(C)[C@@H](C(=O)O)C(C)C)C[C@@H]2c2cccc(F)c2)CC1` in this assay?
OUTPUT: N

INPUT: What classification did `Cn1c(=O)c2c(ncn2C)n(C)c1=O` end up with in this test?
OUTPUT: N

INPUT: Could you check what this test reported for `Cc1ccc(O)cc1` ?
OUTPUT: N
